src = ChEMBL document CHEMBL1145179

Test system: MCF7
Assay: Inhibitory concentration against human breast cancer MCF-7 cell lines
Format: functional, cell-based
readout: pIC50
Keep it numeric: pIC50 is minus log10 of the concentration in mol/L.

What value of pIC50 has been recorded for this entry: `COC1=C2C[C@@H](C)C[C@H](OC)[C@H](O)[C@@H](C)/C=C(\C)[C@H](OC(N)=O)[C@@H](OC)/C=C\C=C(/C)C(=O)NC(=CC1=O)C2=O`
8.19
